- assayed.system: T1, EsCas13d, nuclease-dead (Eubacterium siraeum, UniProt B0MS50, R295A;H300A;R849A;H854A)
- T1 sequence: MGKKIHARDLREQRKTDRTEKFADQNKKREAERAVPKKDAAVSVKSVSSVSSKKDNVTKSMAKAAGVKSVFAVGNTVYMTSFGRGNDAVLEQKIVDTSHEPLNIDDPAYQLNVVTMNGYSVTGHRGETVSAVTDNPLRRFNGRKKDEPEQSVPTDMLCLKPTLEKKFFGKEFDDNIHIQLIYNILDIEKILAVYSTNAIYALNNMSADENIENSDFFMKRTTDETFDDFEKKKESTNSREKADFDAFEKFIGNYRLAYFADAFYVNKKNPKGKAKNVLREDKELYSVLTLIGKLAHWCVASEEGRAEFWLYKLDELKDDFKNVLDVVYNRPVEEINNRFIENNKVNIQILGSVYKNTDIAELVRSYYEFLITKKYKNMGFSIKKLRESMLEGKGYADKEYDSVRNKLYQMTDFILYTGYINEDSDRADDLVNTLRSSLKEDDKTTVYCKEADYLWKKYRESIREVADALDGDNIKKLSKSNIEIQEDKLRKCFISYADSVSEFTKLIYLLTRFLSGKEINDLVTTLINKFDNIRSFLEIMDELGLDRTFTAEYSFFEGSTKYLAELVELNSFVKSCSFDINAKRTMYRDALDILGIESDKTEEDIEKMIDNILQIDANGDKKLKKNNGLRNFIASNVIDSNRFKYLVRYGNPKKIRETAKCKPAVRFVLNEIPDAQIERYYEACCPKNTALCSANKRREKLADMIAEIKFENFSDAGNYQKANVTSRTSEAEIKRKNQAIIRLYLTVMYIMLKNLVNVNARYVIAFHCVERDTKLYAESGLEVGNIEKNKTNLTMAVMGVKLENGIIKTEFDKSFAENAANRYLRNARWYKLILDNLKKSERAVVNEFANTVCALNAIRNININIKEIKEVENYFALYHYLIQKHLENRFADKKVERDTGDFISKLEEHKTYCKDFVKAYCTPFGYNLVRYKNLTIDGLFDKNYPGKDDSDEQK
- assay.details: crRNA (strand 1, pre-loaded); Mg2+; 40 mM Tris-HCl pH 7.5, 150 mM NaCl, 6 mM MgCl2, 1 mM DTT, 0.1% Tween-20, 0.2 mg/ml BSA; 25 C; 10 min per concentration, then washed
- settings: tags: His6-TwinStrep-SUMO cleaved; N-terminal SNAP kept (SNAP-Surface 488); label: 3' end held by stalled T7 RNA polymerase
measure.name: pKd
Scale explanation: pKd corresponds to minus log10 of a concentration expressed in moles per litre.

Ask: Find the recorded pKd belonging to target 1 MT 5'PFS GCA 3'PFS AGC (mixed) RNA 1: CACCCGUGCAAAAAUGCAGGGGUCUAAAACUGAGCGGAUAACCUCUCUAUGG RNA 2: GGGAAUGGAUCCACAUCUACGAAUUCGCACCAUAGAGAGGUUAUCCGCUCAAGCAGAUCGGAAGAGCACACGU and report it.
Result: 7.55

Ask: Requested read-out: pKd. Entry: target 1 insU 3' of 15,insG 3' of 4 (mixed) RNA 1: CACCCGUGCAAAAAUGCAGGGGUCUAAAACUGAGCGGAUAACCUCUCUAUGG RNA 2: GGGAAUGGAUCCACAUCUACGAAUUCGUACCAUAGAGUAGGUUAUCCGCGUCACCGAGAUCGGAAGAGCACACGU
Result: 7.87

Ask: Which pKd is listed for target 2 MT 5'PFS AUU 3'PFS AGC (mixed) RNA 1: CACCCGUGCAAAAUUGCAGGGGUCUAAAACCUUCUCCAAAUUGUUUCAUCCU RNA 2: GGGAAUGGAUCCACAUCUACGAAUUCAUUAGGAUGAAACAAUUUGGAGAAGAGCAGAUCGGAAGAGCACACGU ?
Result: 8.19

Ask: For the binder target 1 insU 3' of 22,insG 3' of 18 (mixed) RNA 1: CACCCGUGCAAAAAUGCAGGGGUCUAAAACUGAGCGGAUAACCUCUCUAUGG RNA 2: GGGAAUGGAUCCACAUCUACGAAUUCGUACUCAUAGGAGAGGUUAUCCGCUCACCGAGAUCGGAAGAGCACACGU , what pKd is on record?
Result: 7.08

Source of measurements: paper PMC10786891
